Molecular target: RNA-directed RNA polymerase (Hepacivirus hominis, UniProt O39930, M423T)
Assay: Inhibition of HCV NS5B polymerase M423T mutant assessed as inhibition of radioactive UMP incorporation into nascent RNA using […] template-primer after 1hr by liquid scintillation counting analysis
Reported Property: pIC50
Give only the number. pIC50 is defined as minus log10 of concentration in molar units.

Prompt: Fill blank: measured pIC50 of the compound O=C(O)[C@H](Cc1ccccc1)N1C(=O)/C(=C/c2cccc(Oc3ccc(Cl)cc3)c2)SC1=S is ____.
Response: 5.38

Prompt: Fill blank: measured pIC50 of the compound O=C(O)[C@H](Cc1ccccc1)N1C(=O)/C(=C/c2cccc(Oc3ccc(Cl)c(Cl)c3)c2)SC1=S is ____.
Response: 5.52

* * *

Provide the recorded pIC50 for the entries that follow.
Target: RNA-directed RNA polymerase (Hepacivirus hominis, UniProt O39930, M414T)
Assay: Inhibition of HCV NS5B polymerase M414T mutant assessed as inhibition of radioactive UMP incorporation into nascent RNA using […] template-primer after 1hr by liquid scintillation counting analysis
Give only the number. pIC50 is defined as minus log10 of concentration in molar units.

Prompt: Fill blank: measured pIC50 of the compound O=C(O)[C@H](Cc1ccccc1)N1C(=O)/C(=C/c2cccc(Oc3ccc(Cl)c(Cl)c3)c2)SC1=S is ____.
Response: 4.32

Prompt: Fill blank: measured pIC50 of the compound O=C(O)[C@H](Cc1ccccc1)N1C(=O)/C(=C/c2cccc(Oc3ccc(Cl)cc3)c2)SC1=S is ____.
Response: 4.25
